The reported measurements were obtained from patent EP3035931B1.

- TESTED_TARGET: ASIC1a channel (Mus musculus, UniProt Q6NXK8)
- Construct: endogenous in cells
- Sequence (Q6NXK8 1-526): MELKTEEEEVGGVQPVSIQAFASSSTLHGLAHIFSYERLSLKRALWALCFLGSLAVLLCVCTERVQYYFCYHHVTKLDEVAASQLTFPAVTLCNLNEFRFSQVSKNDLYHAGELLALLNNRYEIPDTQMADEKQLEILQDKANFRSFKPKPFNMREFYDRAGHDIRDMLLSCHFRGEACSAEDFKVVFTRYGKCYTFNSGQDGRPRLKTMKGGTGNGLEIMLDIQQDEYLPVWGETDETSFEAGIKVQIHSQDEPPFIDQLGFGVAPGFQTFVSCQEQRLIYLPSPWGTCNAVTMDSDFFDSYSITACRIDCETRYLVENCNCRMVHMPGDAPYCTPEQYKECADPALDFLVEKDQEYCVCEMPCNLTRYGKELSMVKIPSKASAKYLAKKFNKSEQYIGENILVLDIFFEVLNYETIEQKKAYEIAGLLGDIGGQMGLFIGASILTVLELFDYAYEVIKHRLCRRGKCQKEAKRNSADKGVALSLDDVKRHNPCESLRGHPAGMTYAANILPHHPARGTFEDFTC
- METHOD_DESCRIPTION: Table 1, inhibition in neurons
- Format: cell-based
- EXPERIMENTAL_CONDITIONS: Neuron (-60 mV); read-out: Inhibition of the ASIC1a channel, Neuron (-60 mV)
Please go through the items and note down their IC50.
Give the value, in units of µM, as a plain number.

Qu. Any idea what IC50 came out for CC(C)COCC(CN(Cc1ccccc1)c1ccccc1)N1CCCC1 (centres unmarked) [Bepridil, bepridil] on ASIC1a channel (Mus musculus, UniProt Q6NXK8)?
Ans. 82.9

Qu. IC50 of CCN(c1nc(N)c(C(=O)NC(=N)N)nc1Cl)C(C)C [EIPA, 5-(N-ethyl-N-isopropyl) amiloride] on ASIC1a channel (Mus musculus, UniProt Q6NXK8)?
Ans. 43.3

###

- TESTED_TARGET: ASIC1a channel (Mus musculus, UniProt Q6NXK8)
- Construct: endogenous in cells
- Sequence (Q6NXK8 1-526): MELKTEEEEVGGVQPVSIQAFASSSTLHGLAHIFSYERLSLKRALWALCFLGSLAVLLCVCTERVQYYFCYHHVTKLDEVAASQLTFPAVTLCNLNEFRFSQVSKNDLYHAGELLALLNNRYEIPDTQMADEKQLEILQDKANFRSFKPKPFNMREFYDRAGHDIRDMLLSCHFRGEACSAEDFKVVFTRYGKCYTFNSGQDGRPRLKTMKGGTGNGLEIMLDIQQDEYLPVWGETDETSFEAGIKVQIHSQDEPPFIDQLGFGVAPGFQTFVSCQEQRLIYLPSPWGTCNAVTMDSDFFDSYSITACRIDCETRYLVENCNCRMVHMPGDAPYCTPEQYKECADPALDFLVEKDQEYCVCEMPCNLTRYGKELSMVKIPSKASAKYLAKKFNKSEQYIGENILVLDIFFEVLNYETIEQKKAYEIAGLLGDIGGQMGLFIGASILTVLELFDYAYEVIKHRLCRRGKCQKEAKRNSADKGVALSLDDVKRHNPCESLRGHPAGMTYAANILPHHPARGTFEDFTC
- METHOD_DESCRIPTION: Table 1, inhibition in neurons
- Format: cell-based
- EXPERIMENTAL_CONDITIONS: Neuron (-20 mV); read-out: Inhibition of the ASIC1a channel, Neuron (-20 mV)
VALUE_KIND: IC50
Answer format reminder: number followed by unit.

Qu. Look up IC50: CCN(c1nc(N)c(C(=O)NC(=N)N)nc1Cl)C(C)C [EIPA, 5-(N-ethyl-N-isopropyl) amiloride]
Ans. 32.2 µM

###

- TESTED_TARGET: ASICs (Mus musculus)
- EXPERIMENTAL_CONDITIONS: cultured mouse cortical neurons; n=8; read-out: IC50, dose-dependent blockade of ASIC currents
VALUE_KIND: IC50 (µM)
Your answer should be a plain number; it is taken to be in µM.

Qu. Requested read-out: IC50. Entry: N=C(N)NC(=O)c1nc(Cl)c(N)nc1N [amiloride]
Ans. 16.4

###

- TESTED_TARGET: ASIC1a (Homo sapiens, UniProt P78348)
- Sequence (P78348 1-528): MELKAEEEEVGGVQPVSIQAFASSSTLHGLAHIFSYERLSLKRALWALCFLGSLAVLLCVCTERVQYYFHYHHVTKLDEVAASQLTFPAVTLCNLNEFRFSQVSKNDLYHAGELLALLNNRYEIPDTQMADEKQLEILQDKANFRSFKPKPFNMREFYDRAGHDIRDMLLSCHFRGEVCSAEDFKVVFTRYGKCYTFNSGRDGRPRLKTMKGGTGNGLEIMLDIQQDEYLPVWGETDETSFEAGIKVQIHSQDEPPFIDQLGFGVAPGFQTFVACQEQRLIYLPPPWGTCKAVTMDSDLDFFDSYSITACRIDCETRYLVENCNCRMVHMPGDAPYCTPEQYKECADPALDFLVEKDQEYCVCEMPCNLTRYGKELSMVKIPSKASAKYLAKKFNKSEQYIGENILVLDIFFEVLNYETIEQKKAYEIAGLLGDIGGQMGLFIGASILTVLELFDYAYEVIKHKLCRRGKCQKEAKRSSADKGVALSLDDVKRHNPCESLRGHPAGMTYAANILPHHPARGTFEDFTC
- METHOD_DESCRIPTION: Blockade of ASIC 1a current expressed in CHO cells
- Format: cell-based
- Design: expressed in transfected cells; host or cells: CHO
- EXPERIMENTAL_CONDITIONS: CHO 1a; read-out: Inhibition of the ASIC1a channel, CHO 1a
VALUE_KIND: pIC50
Note on units: pIC50 is unitless, being -log10 of a concentration expressed in mol/L.

Qu. pIC50 for CCN(c1nc(N)c(C(=O)NC(=N)N)nc1Cl)C(C)C [EIPA, 5-(N-ethyl-N-isopropyl) amiloride] ?
Ans. 3.95

###

- TESTED_TARGET: ASIC1a channel (Mus musculus)
- Construct: endogenous in cells
- METHOD_DESCRIPTION: Table 1, inhibition in neurons
- Assay type: cell-based
- EXPERIMENTAL_CONDITIONS: read-out: Inhibition of the ASIC1a channel, Neuron (-60 mV)
Counter-ions that a name gives are not always drawn.
VALUE_KIND: IC50
Please append the unit to your numeric answer.

Qu. Can you share its IC50? I mean this compound: CN(C)c1nc(N)c(C(=O)NC(=N)N)nc1Cl [hydrochloride]
Ans. 14.8 µM

Qu. Quick one: IC50 for CC(C)CN(C)c1nc(N)c(C(=O)N=C(N)N)nc1Cl [5-(N-Methyl-N-isobutyl)-amiloride] ?
Ans. 24.3 µM
